# SYSTEM NAME: Factor X (FX), P00742
# Sequence (P00742 whole entry, looked up): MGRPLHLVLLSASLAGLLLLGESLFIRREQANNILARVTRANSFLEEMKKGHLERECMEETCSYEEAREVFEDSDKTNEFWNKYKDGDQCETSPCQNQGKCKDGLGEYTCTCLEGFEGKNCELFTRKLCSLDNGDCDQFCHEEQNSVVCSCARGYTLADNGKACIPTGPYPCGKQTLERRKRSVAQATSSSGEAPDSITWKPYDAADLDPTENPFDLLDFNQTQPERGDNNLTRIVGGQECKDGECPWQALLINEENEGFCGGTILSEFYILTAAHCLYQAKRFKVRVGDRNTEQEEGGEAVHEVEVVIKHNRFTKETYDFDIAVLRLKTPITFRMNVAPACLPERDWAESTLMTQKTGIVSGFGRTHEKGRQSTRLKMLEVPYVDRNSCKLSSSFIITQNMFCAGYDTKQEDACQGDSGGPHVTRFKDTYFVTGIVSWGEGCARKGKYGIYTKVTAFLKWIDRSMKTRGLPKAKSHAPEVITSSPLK
Hi! Could you tag entries with KM below 0.04 µM as satisfied, and those at or above as not satisfied? Much appreciated.

Consider the worked cases shown below.
* FIXa-K228N/I251S/R318Y/R338E/R403E/E410N (protein) chain 1: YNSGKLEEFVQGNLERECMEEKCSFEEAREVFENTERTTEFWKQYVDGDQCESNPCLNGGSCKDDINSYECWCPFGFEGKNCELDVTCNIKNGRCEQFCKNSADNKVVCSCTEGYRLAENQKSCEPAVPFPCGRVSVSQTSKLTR chain 2: VVGGEDAKPGQFPWQVVLNGKVDAFCGGSIVNEKWIVTAAHCVETGVNITVVAGEHNIEETEHTEQKRNVSRIIPHHNYNAAINKYNHDIALLELDEPLVLNSYVTPICIADKEYTNIFLKFGSGYVSGWGRVFHKGYSALVLQYLRVPLVDRATCLESTKFTIYNNMFCAGFHEGGRDSCQGDSGGPHVTEVEGTSFLTGIISWGEECAMKGKYGIYTKVSEYVNWIKNKTKLT | satisfied
* FIXa-Y155F/K247N/N249S/R318Y/E410N (protein) chain 1: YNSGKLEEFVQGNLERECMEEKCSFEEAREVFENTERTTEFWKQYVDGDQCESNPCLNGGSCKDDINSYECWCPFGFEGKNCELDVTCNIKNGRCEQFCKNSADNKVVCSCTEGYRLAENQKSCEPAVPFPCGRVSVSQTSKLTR chain 2: VVGGEDAKPGQFPWQVVLNGKVDAFCGGSIVNEKWIVTAAHCVETGVKITVVAGEHNIEETEHTEQNRSVIRIIPHHNYNAAINKYNHDIALLELDEPLVLNSYVTPICIADKEYTNIFLKFGSGYVSGWGRVFHKGYSALVLQYLRVPLVDRATCLRSTKFTIYNNMFCAGFHEGGRDSCQGDSGGPHVTEVEGTSFLTGIISWGEECAMKGKYGIYTKVSRYVNWIKNKTKLT | not satisfied
* FIXa-K247N/N249S/R318Y/R338E/T343R/E410N (protein) chain 1: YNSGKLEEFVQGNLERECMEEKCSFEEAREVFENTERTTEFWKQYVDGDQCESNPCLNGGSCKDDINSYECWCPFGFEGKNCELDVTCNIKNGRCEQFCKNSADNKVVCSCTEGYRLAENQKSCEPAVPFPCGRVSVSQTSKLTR chain 2: VVGGEDAKPGQFPWQVVLNGKVDAFCGGSIVNEKWIVTAAHCVETGVKITVVAGEHNIEETEHTEQNRSVIRIIPHHNYNAAINKYNHDIALLELDEPLVLNSYVTPICIADKEYTNIFLKFGSGYVSGWGRVFHKGYSALVLQYLRVPLVDRATCLESTKFRIYNNMFCAGFHEGGRDSCQGDSGGPHVTEVEGTSFLTGIISWGEECAMKGKYGIYTKVSRYVNWIKNKTKLT | satisfied
* FIXa Y155F/R318Y/R338E/R403E/E410N (protein) chain 1: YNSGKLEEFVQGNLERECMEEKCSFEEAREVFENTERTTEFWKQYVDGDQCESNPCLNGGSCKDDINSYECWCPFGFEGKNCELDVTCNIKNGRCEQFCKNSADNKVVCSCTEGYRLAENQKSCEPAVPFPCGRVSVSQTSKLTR chain 2: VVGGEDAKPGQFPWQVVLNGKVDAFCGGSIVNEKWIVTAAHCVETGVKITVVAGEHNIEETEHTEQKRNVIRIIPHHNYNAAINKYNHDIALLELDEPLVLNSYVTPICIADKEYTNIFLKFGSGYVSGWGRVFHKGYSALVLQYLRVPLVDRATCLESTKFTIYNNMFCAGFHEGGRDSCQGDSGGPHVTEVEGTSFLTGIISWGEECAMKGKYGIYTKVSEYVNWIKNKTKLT | satisfied
* FIXa R318Y/R338E/E410N (protein) chain 1: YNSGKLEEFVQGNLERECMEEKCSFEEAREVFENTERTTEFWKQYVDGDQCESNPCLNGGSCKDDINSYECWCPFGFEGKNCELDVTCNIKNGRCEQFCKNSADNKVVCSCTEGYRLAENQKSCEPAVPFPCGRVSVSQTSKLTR chain 2: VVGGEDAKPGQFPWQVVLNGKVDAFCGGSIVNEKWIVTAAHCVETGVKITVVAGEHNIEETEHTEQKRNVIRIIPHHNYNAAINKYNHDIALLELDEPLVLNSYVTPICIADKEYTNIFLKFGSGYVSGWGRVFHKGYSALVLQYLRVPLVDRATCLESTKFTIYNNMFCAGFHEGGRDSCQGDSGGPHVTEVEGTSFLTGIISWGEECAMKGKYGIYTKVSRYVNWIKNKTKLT | satisfied

Request: Determine if FIXa-Y155F/K247N/N249S/R318Y/T343R/E410N (protein) chain 1: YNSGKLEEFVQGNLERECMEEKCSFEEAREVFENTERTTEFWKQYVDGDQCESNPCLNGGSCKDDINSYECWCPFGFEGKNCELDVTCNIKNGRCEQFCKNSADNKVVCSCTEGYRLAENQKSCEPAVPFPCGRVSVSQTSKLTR chain 2: VVGGEDAKPGQFPWQVVLNGKVDAFCGGSIVNEKWIVTAAHCVETGVKITVVAGEHNIEETEHTEQNRSVIRIIPHHNYNAAINKYNHDIALLELDEPLVLNSYVTPICIADKEYTNIFLKFGSGYVSGWGRVFHKGYSALVLQYLRVPLVDRATCLRSTKFRIYNNMFCAGFHEGGRDSCQGDSGGPHVTEVEGTSFLTGIISWGEECAMKGKYGIYTKVSRYVNWIKNKTKLT shows KM strictly lower than 0.04 µM.
Response: satisfied

Request: Determine if FIXa D203N/F205T/E410N (protein) chain 1: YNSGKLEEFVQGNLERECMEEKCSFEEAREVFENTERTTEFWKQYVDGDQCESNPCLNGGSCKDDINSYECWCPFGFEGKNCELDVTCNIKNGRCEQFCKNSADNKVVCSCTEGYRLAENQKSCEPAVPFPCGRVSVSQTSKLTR chain 2: VVGGEDAKPGQFPWQVVLNGKVNATCGGSIVNEKWIVTAAHCVETGVKITVVAGEHNIEETEHTEQKRNVIRIIPHHNYNAAINKYNHDIALLELDEPLVLNSYVTPICIADKEYTNIFLKFGSGYVSGWGRVFHKGRSALVLQYLRVPLVDRATCLRSTKFTIYNNMFCAGFHEGGRDSCQGDSGGPHVTEVEGTSFLTGIISWGEECAMKGKYGIYTKVSRYVNWIKNKTKLT shows KM strictly lower than 0.04 µM.
Response: not satisfied

// data source = patent US20210238260
